Origin of values: patent US5260465A

molecular target: Farnesyl-protein transferase (FTase) from bovine brain (Bos taurus, UniProt P29702+P49355); construct: Farnesyl-protein transferase (FTase) from bovine brain was chromatographed on DEAE-Sephacel; assay: Inhibition of Ras farnesylation in vitro (FTase assay with Ras-CVLS and [3H]FPP); settings: Ras-CVLS 3.5 μM, 0.25 μM [3H]FPP, partially purified enzyme; compound (9) or (10), under assay conditions open dicarboxylate form
Measure name: pIC50
Give bare numbers, as −log10 of the molar value.

{"Compound": "CCCCCCCC/C=C\\CCCCCCC1=C(C)C(=O)OC1=O [Compound (9)]", "pIC50": 6.96}

Field: next compound
Return reported pIC50. Input compound: CCCCCCCC/C=C\CCCCCC/C(C(=O)O)=C(\C)C(=O)O [Compound (10)]
6.96
